test system: HCT-116; test: Induction of apoptosis in human HCT116 cells assessed as increase in total caspase level relative to control; format: functional, cell-based
Active and inactive are the calls of the source. The rule behind the calls is not given here.
VALUE_KIND: Activity

smiles_representation=O=C(Nc1ccc(-c2ccc3c(c2)CCCC3)oc1=O)c1ccccc1 result=Active
smiles_representation=O=c1[nH]c(=S)[nH]c2nccc(-c3ccc4c(c3)CCCC4)c12 result=Active
smiles_representation=O=C(/C=C\Nc1ccc([N+](=O)[O-])cc1)c1ccc2c(c1)CCCC2 result=Active
smiles_representation=c1cc(-c2ccc3c(c2)CCCC3)n2ncnc2n1 result=Active

Values compiled from ChEMBL document CHEMBL3351261.
